Biological target: Ribosomal protein S6 kinase alpha-1 (Homo sapiens);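 also: mean inhibition of RSK1, reported in the GSK PKIS screen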
Conditions: at 1 µM
Recorded measurements of inhibition, one per entry
attribute.measured: inhibition

# smiles.code, recorded.value
records = [
    ("COc1cccc(COc2cc(-n3cnc4ccccc43)sc2C(N)=O)c1", "0.21%"),
    ("Cc1cc(-c2ccco2)cc(C)c1/C=C/c1cncc(-c2nn[nH]n2)c1", "1.35%"),
    ("CCn1c(-c2nonc2N)nc2c(C#CCN)ncc(OCCCN)c21", "68.3%"),
    ("Fc1ccc(-c2ncn(C3CCNCC3)c2-c2ccnc(Oc3ccccc3)n2)cc1", "-0.32%"),
    ("CCn1c(-c2nonc2N)nc2c(C#CC(C)(C)O)ncc(OC[C@@H]3CCCN3)c21", "23.3%"),
    ("CCn1c(-c2nonc2N)nc2c(C#CC(C)(C)O)ncc(OCC3CCNCC3)c21", "19.9%"),
    ("NC(=O)c1sc(-n2cnc3cc(C(F)(F)F)ccc32)cc1OCc1ccccc1Br", "2.97%"),
    ("COc1cc(C=NNc2ncnc3c2cnn3Cc2ccccc2)ccc1O", "3.82%"),
]
